Tested on: hepatocellular carcinoma cell line Hub-7
Test: Cell proliferation assay, Hub-7 (CELL-TITER GLO)
Type: cell-based
Conditions: Hub-7 cells, 24 h incubation, cell viability by CELL-TITER GLO, top concentration 10 μM; read-out: EC50, Inhibition of Hub-7 Cell Proliferation
Entries annotated with measured EC50

C#Cc1nc(NC(=O)NCc2ccc(-c3cc(C(=O)NC)cc4c3cnn4C)cc2)cs1	200 to 1000 nM
C#Cc1nc(C(=O)NCc2ccc(-c3cn[nH]c3)cc2)cs1	1000 to 5000 nM
C#Cc1nc(C(=O)N2CCN(c3ccc(-c4cccc5ncsc45)cc3)CC2)cs1	≤ 200 nM

Ask | Hi! What's the reported EC50 for "C#Cc1nc(C(=O)NCc2ccc(-c3cccc4c3CC(=O)N4)cc2)cs1" on hepatocellular carcinoma cell line Hub-7?
Reply | 1000 to 5000 nM

Ask | Entry "C#Cc1nc(C(=O)NCCc2ccccc2)cs1" please
Reply | 1000 to 5000 nM

Ask | Entry "C#Cc1nc(C(=O)N(CCO)Cc2ccccc2)cs1" please
Reply | 1000 to 5000 nM

Ask | Entry "C#Cc1nc(C(=O)NCCc2ccc(-c3ccccc3S(=O)(=O)NC)cc2)cs1" please
Reply | 200 to 1000 nM

Ask | Entry "C#Cc1nc(C(=O)NCCc2ccc(-c3cccc4c3C(=O)CC4)cc2)cs1" please
Reply | 200 to 1000 nM

###

Test system: lung cancer cell line NCI-H82
Test: Cell proliferation assay, NCI-H82 (CELL-TITER GLO)
Assay type: cell-based
Conditions: Homo sapiens, NCI-H82, 72 h, NCI-H82 cells, 72 h incubation, cell viability by CELL-TITER GLO, top concentration 1 μM; read-out: EC50, Inhibition of NCl-H82 Cell Proliferation
Value Type: EC50

Reference set (4 entries):
C#Cc1nc(NC(=O)N[C@@H](CO)c2ccc(-c3cccc4ncnc(O)c34)cc2)cs1 [Compound A109]	≤ 0.2 µM
C#Cc1nc(NC(=O)N[C@@H](CO)c2ccc(C3CCCN(C(C)=O)C3)cc2)cs1 (stereo partly drawn) [Compound A194]	0.2 to 1 µM
C#Cc1nc(NC(=O)N[C@@H](COC(N)=O)c2ccc(-c3cccc4cncnc34)cc2)cs1 [Compound A50]	≤ 0.2 µM
C#Cc1nc(NC(=O)NCc2ccc(-c3cccc(C4(C#N)CC4)c3)cc2)cs1 [Compound A167]	≤ 0.2 µM

Ask | For the compound shown here, C#Cc1nc(NC(=O)N[C@H](CO)C(=O)N2CCC(c3ccccc3C#N)CC2)cs1 [Compound A146] , give the reported EC50.
Reply | 0.2 to 1 µM

Ask | Entry C#Cc1nnc(NC(=O)N[C@@H](COC(N)=O)c2ccc(-c3ccc(F)cc3C3CC3(F)F)cn2)s1 (stereo partly drawn) [Compound A87] please
Reply | ≤ 0.2 µM

###

System: hepatocellular carcinoma cell line Hub-7
Experiment: Cell proliferation assay, Hub-7 (CELL-TITER GLO)
Assay type: cell-based
Conditions: Hub-7 cells, 24 h incubation, cell viability by CELL-TITER GLO, top concentration 10 μM; read-out: EC50, Inhibition of Hub-7 Cell Proliferation
pEC50: −log10 of the molar value.
Entries annotated with measured pEC50

C#Cc1nc(C(=O)NCc2cccc(-c3cnn(C)c3)c2)cs1	5.30 to 6.00
C#Cc1nc(C(=O)NCc2ccc(C#N)cc2)cs1	6.00 to 6.70
C#Cc1nc(C(=O)NCc2ccc3ccccc3n2)cs1	≥ 6.70
C#Cc1nc(NC(=O)[C@@H](N)Cc2ccccc2C#N)cs1	5.30 to 6.00
C#Cc1nc(C(=O)NCCc2ccc(-c3cscn3)cc2)cs1	6.00 to 6.70

Ask | For the compound shown here, C#Cc1nc(NC(=O)c2ccccc2)cs1 [Compound E12, N-(2-Ethynylthiazol-4-yl)benzamide] , give the reported pEC50.
Reply | 5.30 to 6.00

Ask | Entry "C#Cc1nc(C(=O)NCc2ccccc2NC(C)=O)cs1" please
Reply | < 5.30

Ask | Entry C#Cc1nc(C(=O)N2CCCCC2C(=O)OC)cs1 (stereo not drawn) please
Reply | < 5.30

Ask | Entry "C#Cc1nc(C(=O)NCCc2cccc(NC(C)=O)c2)cs1" please
Reply | 5.30 to 6.00

Ask | Entry "C#Cc1nc(C(=O)Nc2cccc3cn[nH]c23)cs1" please
Reply | 5.30 to 6.00
